Test system: Candida lusitaniae DSM 70102
Assay Procedure: antifungal activity in vitro, serial dilution in RPMI 1640
Type: cell-based
Measurement Kind: Antifungal activity MIC (µg/mL)
I only need the number, in µg/mL, no unit after it.

• C[C@@H]1[C@H](O)[C@@H](C)/C=C/C=C/C=C/C=C/C=C/C=C/C=C/[C@H](O[C@@H]2O[C@H](C)[C@@H](O)[C@H](NC(=S)Nc3ccccc3)[C@@H]2O)C[C@@H]2O[C@](O)(C[C@@H](O)C[C@@H](O)[C@H](O)CC[C@@H](O)C[C@@H](O)CC(=O)O[C@H]1C)C[C@H](O)[C@H]2C(=O)O [Compound A23, N-[(3-phenyl)-thioureidyl]amphotericin B] = 4
• C[C@@H]1[C@H](O)[C@@H](C)/C=C/C=C/C=C/C=C/C=C/C=C/C=C/[C@H](O[C@@H]2O[C@H](C)[C@@H](O)[C@H](NC(=S)Nc3cccnc3)[C@@H]2O)C[C@@H]2O[C@](O)(C[C@@H](O)C[C@@H](O)[C@H](O)CC[C@@H](O)C[C@@H](O)CC(=O)O[C@H]1C)C[C@H](O)[C@H]2C(=O)O = 4
• C[C@@H]1[C@H](O)[C@@H](C)/C=C/C=C/C=C/C=C/C=C/C=C/C=C/[C@H](O[C@@H]2O[C@H](C)[C@@H](O)[C@H](NC3CC(=O)N(CCO)C3=O)[C@@H]2O)C[C@@H]2O[C@](O)(C[C@@H](O)C[C@@H](O)[C@H](O)CC[C@@H](O)C[C@@H](O)CC(=O)O[C@H]1C)C[C@H](O)[C@H]2C(=O)O (some centres unmarked) = 4

The molecule C[C@@H]1[C@H](O)[C@@H](C)/C=C/C=C/C=C/C=C/C=C/C=C/C=C/[C@H](O[C@@H]2O[C@H](C)[C@@H](O)[C@H](NC(=O)[C@H](N)CC(=O)OC(C)(C)C)[C@@H]2O)C[C@@H]2O[C@](O)(C[C@@H](O)C[C@@H](O)[C@H](O)CC[C@@H](O)C[C@@H](O)CC(=O)O[C@H]1C)C[C@H](O)[C@H]2C(=O)O showed Antifungal activity MIC equal to 2

The molecule C[C@@H]1[C@H](O)[C@@H](C)/C=C/C=C/C=C/C=C/C=C/C=C/C=C/[C@H](O[C@@H]2O[C@H](C)[C@@H](O)[C@H](NC3CC(=O)N(c4ccccc4C(C)(C)C)C3=O)[C@@H]2O)C[C@@H]2O[C@](O)(C[C@@H](O)C[C@@H](O)[C@H](O)CC[C@@H](O)C[C@@H](O)CC(=O)O[C@H]1C)C[C@H](O)[C@H]2C(=O)O (some centres unmarked) showed Antifungal activity MIC equal to 4

The molecule C[C@@H]1[C@H](O)[C@@H](C)/C=C/C=C/C=C/C=C/C=C/C=C/C=C/[C@H](O[C@@H]2O[C@H](C)[C@@H](O)[C@H](NCc3ccc(C(C)(C)C)cc3)[C@@H]2O)C[C@@H]2O[C@](O)(C[C@@H](O)C[C@@H](O)[C@H](O)CC[C@@H](O)C[C@@H](O)CC(=O)O[C@H]1C)C[C@H](O)[C@H]2C(=O)O showed Antifungal activity MIC equal to 2

The molecule C[C@@H]1[C@H](O)[C@@H](C)/C=C/C=C/C=C/C=C/C=C/C=C/C=C/[C@H](O[C@@H]2O[C@H](C)[C@@H](O)[C@H](NC(=S)NCCN3CCOCC3)[C@@H]2O)C[C@@H]2O[C@](O)(C[C@@H](O)C[C@@H](O)[C@H](O)CC[C@@H](O)C[C@@H](O)CC(=O)O[C@H]1C)C[C@H](O)[C@H]2C(=O)O showed Antifungal activity MIC equal to 2

The molecule C[C@@H]1[C@H](O)[C@@H](C)/C=C/C=C/C=C/C=C/C=C/C=C/C=C/[C@H](O[C@@H]2O[C@H](C)[C@@H](O)[C@H](NC(=O)[C@@H](N)Cc3ccc([N+](=O)[O-])cc3)[C@@H]2O)C[C@@H]2O[C@](O)(C[C@@H](O)C[C@@H](O)[C@H](O)CC[C@@H](O)C[C@@H](O)CC(=O)O[C@H]1C)C[C@H](O)[C@H]2C(=O)O showed Antifungal activity MIC equal to 2

The molecule C[C@@H]1[C@H](O)[C@@H](C)/C=C/C=C/C=C/C=C/C=C/C=C/C=C/[C@H](O[C@@H]2O[C@H](C)[C@@H](O)[C@H](NC(=O)[C@@H](N)Cc3ccc(I)cc3)[C@@H]2O)C[C@@H]2O[C@](O)(C[C@@H](O)C[C@@H](O)[C@H](O)CC[C@@H](O)C[C@@H](O)CC(=O)O[C@H]1C)C[C@H](O)[C@H]2C(=O)O showed Antifungal activity MIC equal to 4

The molecule C[C@@H]1[C@H](O)[C@@H](C)/C=C/C=C/C=C/C=C/C=C/C=C/C=C/[C@H](O[C@@H]2O[C@H](C)[C@@H](O)[C@H](NC3CC(=O)N(CC(C)(C)CN(C)C)C3=O)[C@@H]2O)C[C@@H]2O[C@](O)(C[C@@H](O)C[C@@H](O)[C@H](O)CC[C@@H](O)C[C@@H](O)CC(=O)O[C@H]1C)C[C@H](O)[C@H]2C(=O)O (some centres unmarked) showed Antifungal activity MIC equal to 1

The molecule C[C@@H]1[C@H](O)[C@@H](C)/C=C/C=C/C=C/C=C/C=C/C=C/C=C/[C@H](O[C@@H]2O[C@H](C)[C@@H](O)[C@H](NC(=S)NCCN3CCCC3)[C@@H]2O)C[C@@H]2O[C@](O)(C[C@@H](O)C[C@@H](O)[C@H](O)CC[C@@H](O)C[C@@H](O)CC(=O)O[C@H]1C)C[C@H](O)[C@H]2C(=O)O showed Antifungal activity MIC equal to 2
